Numbers sourced from ChEMBL document CHEMBL4400581.

- System: K562
- experiment: Cytotoxicity against human K562 cells by MTT assay
- Format: functional
value_type: CC50

Some compounds with recorded CC50:
C1CC1N1CN2c3nonc3N3CN(C4CC4)CN4c5nonc5N(C1)C2C34 (stereo unspecified)
310 nM
C1CC2CC1CC2N1CN2c3nonc3N3CN(C4CC5CCC4C5)CN4c5nonc5N(C1)C2C34 (stereo unspecified)
210 nM

q: What CC50 value was documented for this compound, C1CCCC(N2CN3c4nonc4N4CN(C5CCCCCC5)CN5c6nonc6N(C2)C3C45)CC1 (stereo unspecified) ?
a: 690 nM

q: What CC50 value was documented for this compound, C1CCC(N2CN3c4nonc4N4CN(C5CCCC5)CN5c6nonc6N(C2)C3C45)C1 (stereo unspecified) ?
a: 640 nM

q: What CC50 value was documented for this compound, C1CCC(N2CN3c4nonc4N4CN(C5CCCCC5)CN5c6nonc6N(C2)C3C45)CC1 (stereo unspecified) ?
a: 590 nM

q: What CC50 value was documented for this compound, C1CCCC(N2CN3c4nonc4N4CN(C5CCCCCCC5)CN5c6nonc6N(C2)C3C45)CCC1 (stereo unspecified) ?
a: 740 nM
